# experimental target: CRD2-4
# Sequence (chain, as listed by the source limits assumed): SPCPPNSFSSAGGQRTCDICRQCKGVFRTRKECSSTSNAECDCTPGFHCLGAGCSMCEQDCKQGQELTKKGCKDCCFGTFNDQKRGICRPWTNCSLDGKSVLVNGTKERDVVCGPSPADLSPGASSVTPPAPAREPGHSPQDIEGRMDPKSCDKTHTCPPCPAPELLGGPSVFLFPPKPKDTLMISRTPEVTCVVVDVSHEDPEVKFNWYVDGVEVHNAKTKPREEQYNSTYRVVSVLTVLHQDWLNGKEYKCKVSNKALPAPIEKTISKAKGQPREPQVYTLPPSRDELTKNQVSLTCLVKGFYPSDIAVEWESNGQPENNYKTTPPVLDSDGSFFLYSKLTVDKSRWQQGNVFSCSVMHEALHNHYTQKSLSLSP
# assay method text: ELISA, coated CD137-Fc protein 2 µg/mL, antibody 10 or 5 µg/mL; absorbance 620 nm divided by that of the uncoated well
Exercise: for every item that follows, state its recorded Ratio with respect to Non-Coating.
// return a plain number; no unit text

[ask] GET /values?readout=Ratio with respect to Non-Coating&item= R14 (antibody, V domains shown) VH: QVQLLESGGGLVQPGGSLRLSCAASGFTFSSYAMSWVRQAPGKGLEWVSAISGSGGSTYYADSVKGRFTISRDNSKNTLYLQMNSLRAEDTAVYYCARDKWYYYPALDYWGQGTLVTVSS VL: DIQMTQSPSSLSASVGDRVTITCRASQSISSYLNWYQQKPGKAPKLLIYAASSLQSGVPSRFSGSGSGTDFTLTISSLQPEDFATYYCLQVYRSPLTFGGGTKVEIK
[reply] 1

[ask] Likewise for R11 (antibody, V domains shown) VH: QVQLLESGGGLVQPGGSLRLSCAASGFTFSSYAMSWVRQAPGKGLEWVSAISGSGGSTYYADSVKGRFTISRDNSKNTLYLQMNSLRAEDTAVYYCARDKWYYYPALDYWGQGTLVTVSS VL: DIQMTQSPSSLSASVGDRVTITCRASQSISSYLNWYQQKPGKAPKLLIYAASSLQSGVPSRFSGSGSGTDFTLTISSLQPEDFATYYCQQFSRFPLTFGGGTKVEIK ?
[reply] 1.1

[ask] Please give the result for R8 (antibody, V domains shown) VH: QVQLQESGPGLVKPSETLSLTCAVSGYSISSGYYWGWIRQPPGKGLEWIGSIYHSGSTYYNPSLKSRVTISVDTSKNQFSLKLSSVTAADTAVYYCARQHSFTRYYGYYYFDYWGQGTTVTVSS VL: DIQMTQSPSSLSASVGDRVTITCRASQSISSYLNWYQQKPGKAPKLLIYAASSLQSGVPSRFSGSGSGTDFTLTISSLQPEDFATYYCLQSDSIPLTFGGGTKVEIK too.
[reply] 2

[ask] What do you get for R13 (antibody, V domains shown) VH: QVQLVESGGGLVQPGGSLRLSCAASGFTFSYYDIQWVRQAPGKGLEWVSSISPSGQSTYYRREVKGRFTISRDNSKNTLYLQMNSLRAEDTAVYYCARRTGREYGGGWYFDYWGQGTLVTVSS VL: DIQMTQSPSSLSASVGDRVTITCRASQSISSYLNWYQQKPGKAPKLLIYAASSLQSGVPSRFSGSGSGTDFTLTISSLQPEDFATYYCQQFSRFPLTFGGGTKVEIK ?
[reply] 0.4
